# target_or_test_system: T1, Human CD73 on cells (MDA-MB-231, Jurkat CD73 knock-in, NCI-H322) (human, UniProt P21589 27-549)
# T1 construct: GPI-anchored native protein; also called native human CD73
# T1 sequence: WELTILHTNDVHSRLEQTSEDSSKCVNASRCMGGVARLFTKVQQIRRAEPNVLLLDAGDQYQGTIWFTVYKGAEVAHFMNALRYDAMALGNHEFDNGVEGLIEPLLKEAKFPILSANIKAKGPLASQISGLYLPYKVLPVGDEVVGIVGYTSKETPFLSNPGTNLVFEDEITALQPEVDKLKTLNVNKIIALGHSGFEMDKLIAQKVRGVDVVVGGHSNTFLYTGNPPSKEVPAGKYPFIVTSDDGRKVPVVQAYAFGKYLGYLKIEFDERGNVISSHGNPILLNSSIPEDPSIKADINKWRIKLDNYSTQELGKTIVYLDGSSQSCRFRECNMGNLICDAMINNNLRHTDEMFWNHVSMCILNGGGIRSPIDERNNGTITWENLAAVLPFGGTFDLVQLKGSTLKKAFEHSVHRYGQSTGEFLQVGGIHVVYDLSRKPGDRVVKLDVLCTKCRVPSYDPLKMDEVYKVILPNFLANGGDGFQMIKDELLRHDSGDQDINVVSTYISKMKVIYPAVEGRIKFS
# assay_comment: FACS on MDA-MB-231 cells, vs CD730002SGMY
# Lookup of reported FACS signal, fold improvement over parental antibody keyed by entry
parameter: FACS signal, fold improvement over parental antibody (fold)

# binder, units_text, assay_result
measured = [
    ("CD730002SGMY CDRH2 G65R (Fab, V domains shown, format in the FACS read-out not clearly stated) VH: EVQLLESGGGLVQPGGSLRLSCAASGFTFSSYAMSWVRQAPGKGLEWVSAISGSGGSTYYADSVKRRFTISRDNSKNTLYLQMNSLRAEDTAVYYCARDKGYYWYMDVWGQGTMVTVSS VL: QSVLTQPPSVSVSPGQTASITCSGDKVGDKYASWYQQKPGQSPVLVIYEDTKRPSGIPERFSGSNSGNTATLTISGTQAMDEADYYCQAWDTSFWVFGGGTKLTVL", "fold", 1.3),
    ("CD730002SGMY CDRH1 M34R (Fab, V domains shown, format in the FACS read-out not clearly stated) VH: EVQLLESGGGLVQPGGSLRLSCAASGFTFSSYARSWVRQAPGKGLEWVSAISGSGGSTYYADSVKGRFTISRDNSKNTLYLQMNSLRAEDTAVYYCARDKGYYWYMDVWGQGTMVTVSS VL: QSVLTQPPSVSVSPGQTASITCSGDKVGDKYASWYQQKPGQSPVLVIYEDTKRPSGIPERFSGSNSGNTATLTISGTQAMDEADYYCQAWDTSFWVFGGGTKLTVL", "fold", 1.1),
    ("CD730002SGMY CDRH1 Y32V (Fab, V domains shown, format in the FACS read-out not clearly stated) VH: EVQLLESGGGLVQPGGSLRLSCAASGFTFSSVAMSWVRQAPGKGLEWVSAISGSGGSTYYADSVKGRFTISRDNSKNTLYLQMNSLRAEDTAVYYCARDKGYYWYMDVWGQGTMVTVSS VL: QSVLTQPPSVSVSPGQTASITCSGDKVGDKYASWYQQKPGQSPVLVIYEDTKRPSGIPERFSGSNSGNTATLTISGTQAMDEADYYCQAWDTSFWVFGGGTKLTVL", "fold", 1.2),
    ("CD730002SGMY CDRH2 T57P (Fab, V domains shown, format in the FACS read-out not clearly stated) VH: EVQLLESGGGLVQPGGSLRLSCAASGFTFSSYAMSWVRQAPGKGLEWVSAISGSGGSPYYADSVKGRFTISRDNSKNTLYLQMNSLRAEDTAVYYCARDKGYYWYMDVWGQGTMVTVSS VL: QSVLTQPPSVSVSPGQTASITCSGDKVGDKYASWYQQKPGQSPVLVIYEDTKRPSGIPERFSGSNSGNTATLTISGTQAMDEADYYCQAWDTSFWVFGGGTKLTVL", "fold", 1.5),
]
